- Tested on: UO-31 renal
- assay_text: NCI-60 one-dose screen, 48 h (100 = growth as untreated, 0 = no growth, -100 = all killed)
- setup_conditions: 10 µM unless noted
Compounds without any hit were thinned out: in the full panel of roughly 83,000, 20% have a hit.
In this section, each of the compounds is paired with its reported growth.
readout_kind: growth (%)

compound=O=C1NC(=O)/C(=C/c2ccccc2OCc2cc3ccccc3nc2Cl)S1 target_entity="UO-31 renal" unit_abbrev=% endpoint_value=71.9
compound=O=C(/C=C/c1ccc(-c2ccccc2)cc1)c1nc2ccccc2n1Cc1ccc(F)cc1 target_entity="UO-31 renal" unit_abbrev=% endpoint_value=47.6
compound="COc1cc2c(c(OC)c1OC)C(=O)CC(c1cccc(NC(=O)c3cc(N)ccc3Cl)c1)O2 (stereo not given)" target_entity="UO-31 renal" unit_abbrev=% endpoint_value=51.5
compound=COc1ccc(/C=C/c2nc3ccccc3nc2Nc2cccc(C)c2)cc1 target_entity="UO-31 renal" unit_abbrev=% endpoint_value=78.4
compound=COc1ccc(-c2nc(SC(C)C)nc(NCCc3c[nH]c4ccccc34)c2C#N)cc1 target_entity="UO-31 renal" unit_abbrev=% endpoint_value=40

###

Some molecules, each annotated with its measured growth.
- Tested on: MDA-MB-435 melanoma
- assay_text: NCI-60 one-dose screen, 48 h (100 = growth as untreated, 0 = no growth, -100 = all killed)
- setup_conditions: 10 µM unless noted
About 83,000 compounds went through this panel and 20% of them were active in at least one assay; those are over-represented in the sample as a whole.
readout_kind: growth (%)

molecule="CCOC(=O)/C=C/c1cccc2c1C(=O)NC(C)(c1cc3cc(Br)ccc3oc1=O)N2 (stereo not given)" target_entity="MDA-MB-435 melanoma" unit_abbrev=% endpoint_value=54.7
molecule=Cc1ccc(C(=O)CSc2nc3ccc(C)cc3c(=O)n2-c2ccc(F)cc2)cc1 target_entity="MDA-MB-435 melanoma" unit_abbrev=% endpoint_value=89.6
molecule="CC(/C=C1\\SC(=S)N(CCCC(=O)NC(CC(C)C)C(=O)O)C1=O)=C\\c1ccccc1 (stereo not given)" target_entity="MDA-MB-435 melanoma" unit_abbrev=% endpoint_value=94.8
molecule="CCOC(=O)C1=C(N)N(c2ccccc2)C2=C(C(=O)CC(C)(C)C2)C1c1ccc(Cl)cc1Cl (stereo not given)" target_entity="MDA-MB-435 melanoma" unit_abbrev=% endpoint_value=29.5
molecule=Cn1cc(NC(=O)c2cc(NC(=O)c3ccc(C#Cc4ccccc4)cc3)cn2C)cc1C(=O)NCCCN1CCOCC1 target_entity="MDA-MB-435 melanoma" unit_abbrev=% endpoint_value=-56.6

###

- Test system: BT-549 breast
- assay_text: NCI-60 one-dose screen, 48 h
- setup_conditions: 10 µM unless noted
The panel holds about 83,000 compounds, 20% with a hit somewhere; the sample as a whole holds those more often. Activity calls are given as the source filed them. How the source made its calls: active means growth percent below 10; inactive means the rest.
Outcomes: active, inactive

compound="CC1=C(C(=O)OCc2ccccc2)C(c2c(O)cc(O)cc2O)n2c(nc3ccccc32)N1 (stereo unspecified)" target_entity="BT-549 breast" discrete_label=inactive
compound=CCCCNC(=S)Nc1ccc(OCc2nc3ccccc3[nH]2)cc1 target_entity="BT-549 breast" discrete_label=inactive
compound=Clc1cccc(Cl)c1/C=C/c1cc(/C=C/c2ccc(Br)cc2)c2ccccc2n1 target_entity="BT-549 breast" discrete_label=inactive
compound=O=c1[nH]c(=O)c2c(-c3cc4ccccc4oc3=O)ccnc2[nH]1 target_entity="BT-549 breast" discrete_label=inactive
compound=Cc1c(C(=O)NNC(=O)c2ccc(Cl)cc2)nnn1-c1ccc(Br)cc1 target_entity="BT-549 breast" discrete_label=inactive
compound=Cc1cc(C)cc(NC(=O)Cn2cc(COn3nnc4ccccc43)nn2)c1 target_entity="BT-549 breast" discrete_label=inactive
compound=COc1ccc2[nH]cc(-c3cc(N)n4nc(-c5cn(C)c6ccccc56)cc4n3)c2c1 target_entity="BT-549 breast" discrete_label=active
compound=COc1ccc(C(=O)/C=C/c2ccc(OCc3ccc(F)cc3)c(OC)c2)cc1OC target_entity="BT-549 breast" discrete_label=active
compound=N/C(=N\c1nc2ccccc2s1)NC(=O)Nc1c(Cl)cccc1Cl target_entity="BT-549 breast" discrete_label=inactive
compound=COc1cc(-c2nc3ccc(C)cc3[nH]2)ccc1OCc1nnc(-c2ccc(Br)cc2)o1 target_entity="BT-549 breast" discrete_label=inactive
compound=O=C(/C=C/Nc1ccc(Cl)cc1)c1ccc2c(c1)Nc1ccccc1S2 target_entity="BT-549 breast" discrete_label=inactive
compound=N#Cc1c(-c2cccc(Cl)c2Cl)cc(-c2ccc3ccccc3c2)[nH]c1=O target_entity="BT-549 breast" discrete_label=active
compound=Cc1cccc(-c2nc(Nc3ccc(C)c(S(N)(=O)=O)c3)c3ccccc3n2)c1 target_entity="BT-549 breast" discrete_label=inactive
compound="CCOP(=O)(OCCCl)c1nc(-c2ccc(C)cc2)oc1NCc1ccccc1 (stereo unspecified)" target_entity="BT-549 breast" discrete_label=inactive
compound=COc1cc(-c2ccc(/C=N/NC(=O)c3[nH]c4ccc(Br)cc4c3-c3ccccc3)o2)cc(OC)c1OC target_entity="BT-549 breast" discrete_label=inactive
compound=O=C(N1c2ccccc2Sc2ccccc21)n1ccc2cccnc21 target_entity="BT-549 breast" discrete_label=inactive
compound=O=C(O)c1ccc(-c2ccc(/C=N/NC(=O)c3[nH]c4ccc(Br)cc4c3-c3ccccc3)s2)cc1 target_entity="BT-549 breast" discrete_label=active
compound=N#Cc1c(-c2cccc(Cl)c2Cl)cc(-c2c[nH]c3ccccc23)[nH]c1=O target_entity="BT-549 breast" discrete_label=inactive
compound="C=C1CCC2C3(C)COC(c4cc(F)cc(F)c4)OC3CCC2(C)C1CC(O)C1=CCOC1=O (stereo unspecified)" target_entity="BT-549 breast" discrete_label=active
compound=Clc1cccc(N/N=C/c2c[nH]c3ccc(Br)cc23)n1 target_entity="BT-549 breast" discrete_label=active
compound=N#Cc1c(-c2ccc(Cl)cc2)nc2n[nH]c(-c3ccc(Cl)cc3)c2c1-c1cccs1 target_entity="BT-549 breast" discrete_label=inactive

###

- Tested on: A498 renal
- assay_text: NCI-60 one-dose screen, 48 h (100 = growth as untreated, 0 = no growth, -100 = all killed)
- setup_conditions: 10 µM unless noted
The panel holds about 83,000 compounds, 20% with a hit somewhere; the sample as a whole holds those more often.
Entries and their growth values follow.
readout_kind: growth (%)

compound=Nc1cc2ccccc2c(=O)n1NC(=O)c1ccc(I)cc1 readout_kind=growth endpoint_value=103
compound=Cn1cc(-c2cc3nc(-c4cn(C)c5ncccc45)cc(N)n3n2)c2ccccc21 readout_kind=growth endpoint_value=-2.42
compound=CCCSc1nc(NCCc2c[nH]c3ccccc23)c(C#N)c(-c2ccccc2)n1 readout_kind=growth endpoint_value=82.5
compound=Cc1cc2c(cc1Cl)C(=O)/C(=C/c1ccccc1)O2 readout_kind=growth endpoint_value=115
compound=CCN(CC)C(=O)N/C(N)=N/c1nc2ccccc2s1 readout_kind=growth endpoint_value=55.6
compound=COc1ccc2cc([C@H](C)C(=O)N/N=C/c3ccc(Br)cc3)ccc2c1 readout_kind=growth endpoint_value=107
compound=COC(=O)C[C@](O)(CCCC(C)(C)O)C(=O)O[C@H]1C(OC)=C[C@@]23CCCN2CCc2cc4c(cc2[C@@H]13)OCO4 readout_kind=growth endpoint_value=-18.6
compound=Cc1ccc(C(=O)C(c2c[nH]c3ccccc23)c2c[nH]c3ccccc23)cc1 readout_kind=growth endpoint_value=108
compound="Cc1nc(Nc2ccccn2)sc1C(=O)CC(SCC(=O)Nc1ccc(Cl)cc1)c1ccccc1F (stereo not given)" readout_kind=growth endpoint_value=45.3
compound=Cn1cc(-c2cc3nc(-c4c[nH]c5ccc(Br)cc45)cc(N)n3n2)c2ccccc21 readout_kind=growth endpoint_value=-25

###

Reported growth by item:
- System: CAKI-1 renal
- assay_text: NCI-60 one-dose screen, 48 h (100 = growth as untreated, 0 = no growth, -100 = all killed)
- setup_conditions: 10 µM unless noted
About 83,000 compounds went through this panel and 20% of them were active in at least one assay; those are over-represented in the sample as a whole.
readout_kind: growth (%)

compound=COc1ccc(-c2nc3cc(C)ccc3n2CC(=O)N=Nc2c(O)[nH]c3ccc(Cl)cc23)cc1 endpoint_value=33
compound=CC(C)c1ccc2c(N)c(C(=O)Nc3cccc(C(F)(F)F)c3)sc2n1 endpoint_value=74
compound=CSc1ccc(C(=O)Nc2ccc3nnn(/C(C#N)=C/c4ccccn4)c3c2)cc1 endpoint_value=4.99
compound=COc1ccc(-c2ccnc(SCc3cc4ccccc4[nH]c3=O)n2)cc1OC endpoint_value=-67
compound="Cc1nc(Nc2ncc(C(=O)Nc3c(C)cccc3Cl)s2)cc(N2CCN(CCCNC(=O)COc3ccc(C4CCC(=O)NC4=O)cc3)CC2)n1 (stereo unspecified)" endpoint_value=-30.7
compound="COc1ccc(NC(=O)[C@H](CO)NC(=O)OC(C)(C)C)cc1C(=O)Nc1cccc(C2CC(=O)c3c(cc(OC)c(OC)c3OC)O2)c1 (stereo partly specified)" endpoint_value=38.6
compound=O=C(NN1C(=O)/C(=C/C=C/c2ccc([N+](=O)[O-])o2)SC1=S)c1ccccc1O endpoint_value=-100
compound="COc1ccc(C2=NN(c3ccccc3)C(c3ccc(OCc4ccccc4)c(OC)c3)C2)cc1OC (stereo unspecified)" endpoint_value=88.7
compound=CN1CCN(Cc2ccc(C(=O)Nc3cccc(C#Cc4cccc5[nH]nc(N)c45)c3)cc2C(F)(F)F)CC1 endpoint_value=-88.5
compound=O=C(/C=C/c1cccc(OCc2ccccc2)c1)c1nc2ccccc2[nH]1 endpoint_value=66.1
compound=COc1ccc2c(c1)c(/C=N/Nc1ccc3ccccc3n1)cn2C endpoint_value=-45.4
compound=COc1cc(/C=C2\C(=N)N=C(SCc3nc4ccccc4[nH]3)NC2=O)ccc1O endpoint_value=86
compound=COc1cc(/C=C/C(=O)c2ccc(C)cc2)ccc1Oc1nc(Nc2ccc(F)cc2)nc(N(C)C)n1 endpoint_value=35.6
compound="CC1(C)CC[C@]2(C(=O)Nc3ccccc3)CC[C@]3(C)C(=CCC4[C@@]5(C)C[C@@H](O)[C@H](O)[C@@](C)(CO)C5CC[C@]43C)C2C1 (stereo partly specified)" endpoint_value=44.1
compound="CC(=O)OC[C@@]1(C)C2CC[C@]3(C)C(CC=C4C5CC(C)(C)CC[C@]5(C(=O)Nc5ccc(Br)cc5)CC[C@]43C)[C@@]2(C)C[C@@H](OC(C)=O)[C@@H]1OC(C)=O (stereo partly specified)" endpoint_value=42
compound=CN(C)c1ccnc(NCCCSC(c2ccccc2)(c2ccccc2)c2ccccc2)c1 endpoint_value=30.8
compound=CN(C)c1ccnc(CNCCSC2(c3ccccc3)c3ccccc3C=Cc3ccccc32)c1 endpoint_value=3.63
compound=N#Cc1c(-c2ccc(Br)cc2)nc2n[nH]c(-c3ccc(Br)cc3)c2c1-c1ccc(F)cc1 endpoint_value=70.1
compound=O=C1NC(=O)/C(=C/c2ccccc2OCc2cc3ccccc3nc2Cl)S1 endpoint_value=82.3
compound=CC1=C(C#N)C2=NNCC(c3ccccc3)=NN2C(c2ccccc2)=C1 endpoint_value=99.8
compound=O=C1NC(=O)c2c1c1c3cc(Br)ccc3[nH]c1c1oc3ccc(F)cc3c21 endpoint_value=-64.8
compound="Cc1ccc([C@H]2C(C(=O)c3ccc(Cl)cc3)C3(N[C@@H]2c2ccccc2)C(=O)Nc2ccc(Cl)cc23)cc1 (stereo partly specified)" endpoint_value=39.1
compound="COc1ccc(NC(=O)[C@@H](N)Cc2ccccc2)cc1C(=O)Nc1cccc(C2CC(=O)c3c(cc(OC)c(OC)c3OC)O2)c1 (stereo partly specified)" endpoint_value=54.1
compound="C=C1CCC2C3(C)COC(c4ccco4)OC3CCC2(C)C1CC(Sc1ccccc1)C1=CCOC1=O (stereo unspecified)" endpoint_value=88.2
compound=Cn1cc(-c2cc(N)n3nc(-c4cn(C)c5ncccc45)cc3n2)c2cccnc21 endpoint_value=86.5
compound=OCNc1ccc(-n2cnc3cc(-c4ccc(O)cc4)ccc32)cc1C(F)(F)F endpoint_value=33.5
compound="COc1cc(C2CC(c3cc(OC)c(OC)c(OC)c3)=NN2C(C)=O)ccc1OCc1ccccc1 (stereo unspecified)" endpoint_value=29
compound=CCCCSc1nc(Nc2ccc(S(N)(=O)=O)cc2)c(C#N)c(-c2cc(OC)c(OC)c(OC)c2)n1 endpoint_value=34.9
compound="CC12CC[C@@H]3[C@]4(C)COC(c5c(F)cccc5F)O[C@@H]4CC[C@@]3(C)[C@@H]1CC(C1=CCOC1=O)O2 (stereo partly specified)" endpoint_value=87.2
compound=Cc1cccc(-c2nc(Nc3cccc(S(N)(=O)=O)c3)c3ccccc3n2)c1 endpoint_value=46.9
compound=CC(=O)Nc1ccc(-c2nc3cc(-c4ccc(O)cc4)ccc3n2C)cc1 endpoint_value=34.6
compound=C#CCOc1ccc(/C=N/Nc2nc(-c3ccc(Cl)cc3)cs2)cc1OC endpoint_value=52.6
compound=COc1ccc(C(=O)/C=C/c2ccc(Oc3nc(Nc4ccc(F)cc4)nc(N(C)C)n3)c(OC)c2)cc1 endpoint_value=49
compound=Nc1nnc(-c2c[nH]c3ccc(Br)cc23)c(-c2c[nH]c3ncc(Br)cc23)n1 endpoint_value=21
compound=COc1cccc(-c2nc(Nc3ccc(S(N)(=O)=O)cc3)c3ccccc3n2)c1 endpoint_value=25.2
compound=O=c1[nH]c2ccccc2cc1CSc1nccc(-c2ccc3ccccc3c2)n1 endpoint_value=56.6
